Cited source for all entries: patent US20260234242A1

Target: T1, his-tagged human CDH6 extracellular region protein (hCDH6 ECD-his) (human, UniProt P55285 19-615)
T1 construct: also called Human CDH6-his; hCDH6-his; not shown: his tag
T1 sequence: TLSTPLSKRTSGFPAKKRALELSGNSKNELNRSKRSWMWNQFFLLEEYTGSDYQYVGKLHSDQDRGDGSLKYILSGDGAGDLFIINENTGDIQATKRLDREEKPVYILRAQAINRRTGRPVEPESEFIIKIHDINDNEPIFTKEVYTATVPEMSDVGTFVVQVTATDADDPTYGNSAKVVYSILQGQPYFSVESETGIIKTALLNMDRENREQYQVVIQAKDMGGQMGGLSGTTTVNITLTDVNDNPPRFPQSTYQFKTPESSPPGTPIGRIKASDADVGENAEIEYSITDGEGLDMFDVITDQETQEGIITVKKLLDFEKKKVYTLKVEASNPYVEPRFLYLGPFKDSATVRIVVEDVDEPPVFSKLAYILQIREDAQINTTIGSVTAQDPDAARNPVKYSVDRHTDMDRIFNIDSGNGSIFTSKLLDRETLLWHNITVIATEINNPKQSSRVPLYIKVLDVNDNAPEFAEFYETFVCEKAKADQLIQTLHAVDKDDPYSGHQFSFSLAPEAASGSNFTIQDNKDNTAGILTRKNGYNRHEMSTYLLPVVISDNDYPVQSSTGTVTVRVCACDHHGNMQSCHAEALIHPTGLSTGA
Assay: SPR Biacore, antibody captured on Protein A
Procedure: The affinity of the antibody for the antigen was determined by a multi-cycle kinetic method using a BIAcore 8K instrument. […] The data were analyzed using Biacore 8K analysis software (version No. 2.0) based on the 1:1 binding model to fit the antibody-antigen binding kinetic parameters, including the association rate constant ka, the dissociation rate constant kd, and the equilibrium dissociation constant KD. […]
Recorded kon for the following binders
// return numeric value only (unit: M⁻¹ s⁻¹, not printed)

Below, each entry is followed by its recorded kon result.
hCDH6-1-H1L3 (antibody, V domains shown, Humanized) VH: EVQLVQSGAEVKKPGSSVKVSCKASGYTFSNYWMHWVRQAPGQGLEWMGDIDPSHSETHYTQKFKDRVTITVDKSTSTAYMELSSLRSEDTAVYYCARGDLGRFDYWGQGTTVTVSS VL: DIQMTQSPSSLSASVGDRVTITCRASESVSIHGTHLMHWYQQKPGKPPKLLIYAASNLESGVPSRFSGSGSETDFTFTISSLQPEDIATYYCQQSFEDPWTFGGGTKVEIK ... 435000
CHI-CDH6-1 (antibody, human IgG1, kappa, V domains shown, also called CHI-hCDH6-1; CH1-CDH6-1) VH: QVQLQQPGAELVRPGSSVKLSCKASGYTFTNYWMHWVKQRPIEGLEWIGDIDPSHSETHYTQKFKDKATLTVDKSSSTAYMQLSSLTSEDSAVYYCARGDLGRFDYWGQGTTLTVSS VL: DIVLTQSPASLAVSLGQRATISCRASESVSIHGTHLMHWYQQKSGQPPKLLIYAASNLESGVPARFSGSGSETDFTFNIHPVEEEDAATYFCQQSFEDPWTFGGGTKLEIKR ... 442000

Entry hCDH6-1-H1L2 (antibody, V domains shown, Humanized) VH: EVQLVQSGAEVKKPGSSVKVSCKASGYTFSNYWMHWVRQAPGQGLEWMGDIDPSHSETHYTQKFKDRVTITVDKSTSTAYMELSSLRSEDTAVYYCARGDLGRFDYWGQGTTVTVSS VL: DIVMTQSPDSLAVSLGERATINCRASESVSIHGTHLMHWYQQKSGQPPKLLIYAASNLESGVPDRFSGSGSETDFTLTISSLQAEDVAVYYCQQSFEDPWTFGGGTKVEIK , kon reported as 196000

Memo: hCDH6-1-H1L1 (antibody, V domains shown, Humanized) VH: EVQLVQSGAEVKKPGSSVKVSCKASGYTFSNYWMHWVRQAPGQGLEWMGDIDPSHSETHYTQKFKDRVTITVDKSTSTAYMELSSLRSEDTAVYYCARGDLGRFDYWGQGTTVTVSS VL: DIVMTQSPDSLAVSLGERATINCRASESVSIHGTHLMHWYQQKPGQPPKLLIYAASNLESGVPDRFSGSGSETDFTLTISSLQAEDVAVYYCQQSFEDPWTFGGGTKVEIK , reported kon: 210000
